Molecular target: T1, human S100A5 (human)
T1 sequence (P33763 1-92, looked up): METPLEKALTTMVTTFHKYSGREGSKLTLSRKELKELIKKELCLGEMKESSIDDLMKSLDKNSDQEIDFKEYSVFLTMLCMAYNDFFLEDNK
Test: ITC
Outcome Measure: Kd (µM)
Numbers only, in µM.

[in] Input RRLLFYKYVYKR [12 amino acid fragment of the protein NCX1] , output reported Kd.
[out] 18

This collection of values is drawn from paper PMC5995566.
